ASSAY TARGET: Sterol 14-alpha demethylase (Trypanosoma cruzi (strain CL Brener))
Sequence (Q7Z1V1 whole entry): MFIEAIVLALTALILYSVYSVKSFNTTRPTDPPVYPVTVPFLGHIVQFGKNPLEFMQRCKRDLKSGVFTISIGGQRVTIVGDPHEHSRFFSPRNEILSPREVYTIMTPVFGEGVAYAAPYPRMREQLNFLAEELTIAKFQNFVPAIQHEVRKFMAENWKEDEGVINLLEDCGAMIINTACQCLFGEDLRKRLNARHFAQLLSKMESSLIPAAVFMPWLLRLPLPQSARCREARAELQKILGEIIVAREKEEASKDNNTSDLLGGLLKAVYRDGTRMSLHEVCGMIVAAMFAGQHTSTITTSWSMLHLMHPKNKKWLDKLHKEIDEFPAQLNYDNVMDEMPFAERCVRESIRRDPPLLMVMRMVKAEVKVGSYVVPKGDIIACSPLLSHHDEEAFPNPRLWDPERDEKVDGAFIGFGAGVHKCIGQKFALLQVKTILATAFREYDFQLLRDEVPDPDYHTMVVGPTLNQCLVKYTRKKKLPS
ASSAY NOTES: Spectral Titration of TCCYP51
STUDY CONDITIONS: pH 7.4; 24 °C
MEASUREMENT KIND: Kd (nM)
# output: bare number, implied unit nM

-- ask Report Kd, nothing else, for this compound: COc1ccc2c(c1)c(CC(=O)NCc1ccc(Cl)nc1)c(C)n2C(=O)c1ccc(Cl)cc1 [Indomethacin-amide derivative, 18]
-- reply 260

-- ask Report Kd, nothing else, for this compound: COc1ccc2c(c1)c(CC(=O)Nc1cccnc1C)c(C)n2C(=O)c1ccc(Cl)cc1 [Indomethacin-amide derivative, 13]
-- reply 7600

-- ask Report Kd, nothing else, for this compound: COc1ccc2c(c1)c(CC(=O)NCc1ccc(C(F)(F)F)nc1)c(C)n2C(=O)c1ccc(Cl)cc1 [Indomethacin-amide derivative, 19]
-- reply 560

FYI, the data here is from BindingDB's records for doi:10.1021/jm801643b.
